- Test system: KM12
- PROTOCOL DESCRIPTION: NCI tumour cell line growth inhibition, 48 h
Active and inactive are the calls of the source. Rule as the data show it: active = GI50 up to about 1.1 µM and inactive = higher.
Entry note: the call must match one of 1 (active), 0 (inactive)

Task item: Record lookup: outcome of this test for COc1cc2cc(C(=O)N3CC(CCl)c4c3cc([N+](=O)[O-])c3ccccc43)[nH]c2c(OC)c1OC (stereo not given) ?
Reply: 0

Task item: Record lookup: outcome of this test for [N-]=[N+]=C(C(=O)OCC#CCOC(=O)C(=[N+]=[N-])S(=O)(=O)c1ccccc1)S(=O)(=O)c1ccccc1 ?
Reply: 0

Task item: Record lookup: outcome of this test for Cn1c2ccccc2c2c(=S)c3ccccc3ccc21 ?
Reply: 0

Task item: Record lookup: outcome of this test for Cc1cc(O)c(-c2cc(O)c(C)cc2O)cc1O ?
Reply: 0

Task item: Record lookup: outcome of this test for CCN(CC)CC[S+]([O-])c1c2cc(OC)ccc2nc2ccc(OC)cc12 (stereo not given) ?
Reply: 0

Task item: Record lookup: outcome of this test for C[n+]1c2ccccc2c(NC(CS)C(=O)O)c2ccccc21 (stereo not given) ?
Reply: 0

Task item: Record lookup: outcome of this test for Cc1ccc(C(=O)NCCN(C)C)c2nc3ccccc3cc12 ?
Reply: 1

Task item: Record lookup: outcome of this test for COc1cc2c(cc1OCCCC(=O)Nc1cc(C(=O)NCCCN(C)C)n(C)n1)N=CC1CCCN1C2=O (stereo not given) ?
Reply: 0

Task item: Record lookup: outcome of this test for CC(/C=N\NC(=S)N(C)C)=N/NC(=S)N(C)C ?
Reply: 0

Task item: Record lookup: outcome of this test for CCOC(=O)c1[nH]c2nc(SC)nc(NC)c2c1N ?
Reply: 0

---

- System: CCRF-CEM
- PROTOCOL DESCRIPTION: NCI tumour cell line growth inhibition, 48 h
The source made the active and inactive calls. Cut-off read from the data, not from the text of the source: active = GI50 up to about 1.1 µM and inactive = higher.
Entry note: the call must match one of TRUE = active, FALSE = inactive

Task item: Record lookup: outcome of this test for CCOC(=O)CC(=O)Sc1ccccc1 ?
Reply: FALSE

Task item: Record lookup: outcome of this test for CS(=O)(=O)OC1CN2CCC1CC2 (configuration not stated) ?
Reply: FALSE

Task item: Record lookup: outcome of this test for CCOC(=O)c1nc2cc(C(F)(F)F)ccc2nc1Oc1ccc(C#N)cc1 ?
Reply: FALSE

Task item: Record lookup: outcome of this test for COc1cc(OC)c2c(O)c3c(cc2c1)CC(C)(C)CC3=O ?
Reply: FALSE

Task item: Record lookup: outcome of this test for C=C(CN(C)C)C(=O)c1ccccc1Cl ?
Reply: FALSE

Task item: Record lookup: outcome of this test for CCOC(=O)C1C(c2ccccc2)C2(C#N)C(=N)OC1(C)C2(C#N)C#N (configuration not stated) ?
Reply: FALSE

Task item: Record lookup: outcome of this test for CC(=O)c1c2c(cc3c1CCC3)CCC2 ?
Reply: FALSE

Task item: Record lookup: outcome of this test for CCOC(=O)Nn1cnnc1Cc1ccccc1 ?
Reply: FALSE

Task item: Record lookup: outcome of this test for c1ccc2cc(OCC3CO3)c(OCC3CO3)cc2c1 (configuration not stated) ?
Reply: TRUE

Task item: Record lookup: outcome of this test for c1ccc2c(c1)OC(N1CCCC1)c1cnc(N3CCCC3)nc1-2 (configuration not stated) ?
Reply: FALSE

Task item: Record lookup: outcome of this test for COC(=O)N/N=C(\C(=O)Nc1cccc([N+](=O)[O-])c1)c1nc2ccc([N+](=O)[O-])cc2nc1O ?
Reply: FALSE

Task item: Record lookup: outcome of this test for COc1ccc(COCCOCc2nc(C#N)c(N)o2)cc1 ?
Reply: FALSE

Task item: Record lookup: outcome of this test for COc1ccccc1/C=C\C(=O)C1COCN1 (configuration not stated) ?
Reply: FALSE

Task item: Record lookup: outcome of this test for COc1cccc(N2C(Cl)C(=O)C2c2c[nH]c3ccccc23)c1 (configuration not stated) ?
Reply: FALSE

Task item: Record lookup: outcome of this test for COc1ccc2c(c1)Oc1cc(O)ccc1[C@@H]2c1ccccc1C(=O)NC(C)c1ccccc1 (some centres not stated) ?
Reply: FALSE

Task item: Record lookup: outcome of this test for CCCN(CCC)C(=O)c1c([N+](=O)[O-])cc(C(F)(F)F)cc1[N+](=O)[O-] ?
Reply: FALSE

Task item: Record lookup: outcome of this test for CCCCCCCCCCCCCCCCCCNc1ccn(C2OC(COP(=O)(O)OC3CC(n4cc(F)c(=O)[nH]c4=O)OC3COP(=O)(O)OCC3OC(n4ccc(N)nc4=O)C(O)C3O)C(O)C2O)c(=O)n1 (configuration not stated) ?
Reply: TRUE

Task item: Record lookup: outcome of this test for C/C(=N\NC(=O)c1ccncc1)c1ccccc1F ?
Reply: FALSE

Task item: Record lookup: outcome of this test for Cc1ccc(NC(=O)CC/C(CC(=O)C(C)(C)C)=N\NC(=O)C[n+]2ccccc2)cc1C ?
Reply: FALSE

Task item: Record lookup: outcome of this test for O=C1CC[C@@H](S(=O)(=O)c2ccccc2)[C@@H](/C=C/c2ccccc2)O1 ?
Reply: FALSE

Task item: Record lookup: outcome of this test for NC(=S)N1N=C2c3ccccc3CC[C@@H]2[C@@H]1c1ccccc1 ?
Reply: FALSE

Task item: Record lookup: outcome of this test for O=C1CC(O)C=C1Nc1ccc(Cl)cc1 (configuration not stated) ?
Reply: FALSE

Data provenance is ChEMBL document CHEMBL1201862.
